test system: complementary DNA; test: Thermal denaturation (UV melting) of AON duplexes with complementary DNA; type: binding; conditions: 1 μM of each strand, medium salt buffer pH 7.5, average of at least three runs
Assignment: determine reported Tm/° C. with DNA for the given substances.
Answers are plain numbers, in °C.

Illustrative cases are given below, each with its answer.
SUBSTANCE: 3′-d(CTTCTTTT(5-carbo)TTACTTC)-5′ (antisense CTTCTTTTTTACTTC; carbocyclic-LNA-T at position 8 from 3'-end, chemistry not fully specified) [AON 8, carbocyclic-LNA-T modified AON, position 8 from 3′-end]
Tm/° C. with DNA (°C): 44
--
SUBSTANCE: 3′-d(CTTCTT(5-carbo)TTTTACTTC)-5′ (antisense CTTCTTTTTTACTTC; carbocyclic-LNA-T at position 6 from 3'-end, chemistry not fully specified) [AON 7, carbocyclic-LNA-T modified AON, position 6 from 3′-end]
Tm/° C. with DNA (°C): 44
--
SUBSTANCE: 3′-d(CTTCT T(LNA)TTTTACTTC)-5′ [AON 3]
Tm/° C. with DNA (°C): 46.5
--
SUBSTANCE: 3′-d(CTTCTTTT(LNA)TTACTTC)-5′ (antisense CTTCTTTTTTACTTC; LNA-T at position 8 from 3'-end, chemistry not fully specified) [AON 4, LNA-T modified AON, position 8 from 3′-end]
Tm/° C. with DNA (°C): 45.0
--
SUBSTANCE: 3′-d(CTTCTTTTTT(LNA)ACTTC)-5′ (antisense CTTCTTTTTTACTTC; LNA-T at position 10 from 3'-end, chemistry not fully specified) [AON 5, LNA-T modified AON, position 10 from 3′-end]
Tm/° C. with DNA (°C): 46

For the 5 substances below, give their Tm/° C. with DNA values.
1. 3′-d(CTTCTTTTTT(6-carbo)ACTTC)-5′ [AON 13]
2. 3′-d(CTTCTTTT(aza-ENA)TTACTTC)-5′ (antisense CTTCTTTTTTACTTC; aza-ENA-T at position 8 from 3'-end, chemistry not fully specified) [AON 16, aza-ENA-T modified AON, position 8 from 3′-end]
3. 3′-d(CTTCTT(6-carbo)TTTTACTTC)-5′ [AON 11]
4. 3′-d(CTT(LNA)CTTTTTTACTTC)-5′ (antisense CTTCTTTTTTACTTC; LNA-T at position 3 from 3'-end, chemistry not fully specified) [AON 2, LNA-T modified AON, position 3 from 3′-end]
5. 3′-d(CTT(6-carbo)CTTTTTTACTTC)-5′ (antisense CTTCTTTTTTACTTC; carbocyclic-ENA-T at position 3 from 3'-end, chemistry not fully specified) [AON 10, carbocyclic-ENA-T modified AON, position 3 from 3′-end]

Solution:
39.5
42
39.5
47
43.5

Values from patent US8461124B2
